# System: A498 renal
# assayRemarks: NCI tumour cell line growth inhibition, 48 h
As shown below, each of these compounds has a reported TGI value.

NC(=O)OCc1c(O)c2c(c(O)c1COC(N)=O)C(=O)C=CC2=O | > 100 µM
COc1cc(O)c2c(=O)cc(C3(OC(C)=O)C=CC(OC4OC(CO)C(O)C(O)C4O)C=C3)oc2c1 (stereo unspecified) | > 100 µM
N/C(=N\N=C=C1C(=O)Nc2ccc(F)cc21)NO | > 100 µM
CC(=O)NC1C(OCc2ccccc2)OC(CO)C(O)C1OC(C)C(=O)NC(C(=O)NC(CCC(=O)Nc1ccc2c(c1)CN1C(=O)c3ccccc3C1=N2)C(N)=O)C(C)C (stereo unspecified) | > 100 µM
c1ccc(CNc2nc(Nc3ccc(-c4nc5ccccc5[nH]4)cc3)c3cn[nH]c3n2)cc1 | 8.22 µM
CC(C)=CCc1c(O)c(CC=C(C)C)c2oc3c(c(=O)c2c1O)C(C=C(C)C)Oc1cc(O)ccc1-3 (stereo unspecified) | 29.8 µM
O=C1c2cccnc2-c2nc(-c3ccccc3)cc3c2c1nc1ccccc13 | 31.2 µM
COc1cc(-c2cn(-c3ccc(Cl)cc3)c(=O)n2-c2ccccc2)cc(OC)c1OC | > 92.4 µM
C=C1C(=O)C23C(O)C1CCC2C12CO[C@]3(O)[C@@H](O)C1C(C)(C)CCC2O (stereo partly specified) | 36.5 µM
C[N+](C)(C)C(Cc1c[nH]c(=S)[nH]1)C(=O)O (stereo unspecified) | > 100 µM

Looking up "CC1(C)O[C@@H]([C@@H](O)[C@H](O)C2SCCCS2)[C@@H](CO)O1" , I see its TGI listed as > 100 µM

Looking up "COc1ccc(C(=O)Nc2ccccc2)cc1[N+](=O)[O-]" , I see its TGI listed as > 100 µM
